# System: recombinant NL4-3 virus (Renilla luciferase in nef)
# assay: HIV cell culture assay (antiviral activity, luciferase readout in MT-2 cells)
# Type: cell-based
# assay_setup: Renilla, NL43
# From the text: HIV cell culture assay—MT=2 cells, 293T cells and the proviral DNA clone of NL4-3 virus were obtained from the NIH AIDS Research and Reference Reagent Program. […] Luciferase was quantitated using the EnduRen Live Cell Substrate from Promega (Madison, Wis.). Antiviral activities of compounds toward the recombinant virus were quantified by measuring luciferase activity in MT=2 cells infected for 4-5 days with the recombinant virus in the presence of serial dilutions of the compound. […]
property_name: EC50 (nM)

INSERT INTO results (molecule, endpoint_value) VALUES
  ('Cn1nc(NS(C)(=O)=O)c2c(Cl)ccc(-n3c([C@H](Cc4cc(F)cc(F)c4)NC(=O)Cn4nc(C(F)F)c5c4C(F)(F)[C@@H]4C[C@H]54)nc4cc(-c5ccnc(C#N)n5)ccc4c3=O)c21 (atropisomer, axis not shown; (P))', 0.089),
  ('Cn1nc(NS(C)(=O)=O)c2c(Cl)ccc(-n3c([C@H](Cc4cc(F)cc(F)c4)NC(=O)Cn4nc(C(F)F)c5c4C(F)(F)[C@@H]4C[C@H]54)nc4cc(-c5ccc6ocnc6c5)ccc4c3=O)c21 (atropisomer, axis not shown; (P))', 0.34),
  ('Cn1nc(NS(C)(=O)=O)c2c(Cl)ccc(-n3c([C@H](Cc4cc(F)cc(F)c4)NC(=O)Cn4nc(C(F)F)c5c4C(F)(F)[C@@H]4C[C@H]54)nc4cc(-c5ccnc(S(C)(=O)=O)n5)ccc4c3=O)c21 (atropisomer, axis not shown; (P))', 0.15),
  ('Cc1cc(-c2ccc3c(=O)n(-c4ccc(Cl)c5c(NS(C)(=O)=O)nn(C)c45)c([C@H](Cc4cc(F)cc(F)c4)NC(=O)Cn4nc(C(F)F)c5c4C(F)(F)[C@@H]4C[C@H]54)nc3c2)nn1CC(F)(F)C(F)F (atropisomer, axis not shown; (P))', 0.13),
  ('CCC(F)(F)Cn1ccc(-c2ccc3c(=O)n(-c4ccc(Cl)c5c(NS(C)(=O)=O)nn(C)c45)c([C@H](Cc4cc(F)cc(F)c4)NC(=O)Cn4nc(C(F)F)c5c4C(F)(F)[C@@H]4C[C@H]54)nc3c2)n1 (atropisomer, axis not shown; (P))', 0.081),
  ('Cn1nc(NS(C)(=O)=O)c2c(Cl)ccc(-n3c([C@H](Cc4cc(F)cc(F)c4)NC(=O)Cn4nc(C(F)F)c5c4C(F)(F)[C@@H]4C[C@H]54)nc4cc(-c5ccnc(C(F)(F)F)n5)ccc4c3=O)c21 (atropisomer, axis not shown; (P))', 0.066),
  ('COCc1ccccc1-c1ccc2c(=O)n(-c3ccc(Cl)c4c(NS(C)(=O)=O)nn(C)c34)c([C@H](Cc3cc(F)cc(F)c3)NC(=O)Cn3nc(C(F)F)c4c3C(F)(F)[C@@H]3C[C@H]43)nc2c1 (atropisomer, axis not shown; (P))', 0.16),
  ('Cn1nc(NS(C)(=O)=O)c2c(Cl)ccc(-n3c([C@H](Cc4cc(F)cc(F)c4)NC(=O)Cn4nc(C(F)F)c5c4C(F)(F)[C@@H]4C[C@H]54)nc4cc(-c5nc(C(F)(F)F)ccc5F)ccc4c3=O)c21 (atropisomer, axis not shown; (P))', 0.15),
  ('Cn1nc(NS(C)(=O)=O)c2c(Cl)ccc(-n3c([C@H](Cc4cc(F)cc(F)c4)NC(=O)Cn4nc(C(F)F)c5c4C(F)(F)[C@@H]4C[C@H]54)nc4cc(-c5ncc(Cl)cc5F)ccc4c3=O)c21 (atropisomer, axis not shown; (P))', 0.3),
  ('Cn1nc(NS(C)(=O)=O)c2c(Cl)ccc(-n3c([C@H](Cc4cc(F)cc(F)c4)NC(=O)Cn4nc(C(F)F)c5c4C(F)(F)[C@@H]4C[C@H]54)nc4cc(-c5cncc(C(F)F)c5)ccc4c3=O)c21 (atropisomer, axis not shown; (P))', 0.078);
